# System: CAKI-1
# test description: NCI tumour cell line growth inhibition, 48 h
Activity calls are given as the source filed them. No stated cut-off is given here; in the data, active = GI50 up to about 1.1 µM and inactive = higher.
Some molecules, each annotated with its measured GI50.
value type: GI50

> print(dat)
                                   molecule             observed
1  CSc1ccn(C2CC(F)C(CO)O2)c(=O)n1 (centres undefined)  > 100 µM (inactive)
2  CCOc1ccc2nc(NC(=O)C(=O)C3C(=O)C(CC4C(=O)c5ccccc5C4=O)C(=O)CC3(C)C)sc2c1 (centres undefined)     80 µM (inactive)
3  C=C1C2CCC3C4(C)CCCC(C)(C(=O)O)C4CCC3(C2)C1OC(=O)/C(C)=C/C (centres undefined)   26.2 µM (inactive)
4                O=c1oc(=O)c2oc3ccccc3oc1=2  > 100 µM (inactive)
5                          COC(=O)CCCC(=O)O  > 100 µM (inactive)
6  O=C(Nc1ccccc1)c1cc2ccccc2c(/N=N\c2cccc([N+](=O)[O-])c2)c1O  > 100 µM (inactive)
7           CCNC(=O)c1ccc(C)c(/N=N/N(C)C)c1  > 100 µM (inactive)
8  O=[N+]([O-])c1ccccc1S(=O)(=O)c1cccc2c1NCCC2   63.5 µM (inactive)
9            S=c1cc(-c2ccc3c(c2)OCO3)s[nH]1  > 100 µM (inactive)

* * *

# Tested on: UACC-62
# test description: NCI tumour cell line growth inhibition, 48 h
Activity calls are given as the source filed them. No stated cut-off is given here; in the data, active = GI50 up to about 1.1 µM and inactive = higher.
Outcome codes: active, inactive

compound	category
C[C@@H]1[C@@H]2[C@@H](C=C3C4CCC5Cc6nc7c(nc6C[C@@]5(C)C4C[C@H](O)[C@]32CO)CC2CCC3C4=C[C@H]5O[C@@]6(OC(C)(CO)C[C@@H]6O)[C@H](C)[C@@]5(O)[C@]4(C)[C@@H](O)CC3[C@]2(C)C7)O[C@]12CCC(C)(C)O2 (stereo partly drawn)	active
O=C1C=CC(=O)c2c1ccc1c3ccccc3n(-c3ccccc3[N+](=O)[O-])c21	inactive
CN[C@@H](Cc1cccc2ccccc12)C(=O)N[C@@H](CC(C)C)B(O)O	active
COc1ccc2[nH]c3cc4c(=O)c5cc(OC)ccc5[nH]c4cc3c(=O)c2c1	inactive
CC1=C(C(=O)Nc2ccccc2C)C(c2ccc(N(C)C)cc2)C(C(=O)Nc2ccccc2C)=C(C)N1	inactive
O=C(N/N=C/c1ccccc1O)c1ccccc1Nc1ccccc1C(=O)N/N=C/c1ccccc1O	active
OCC(O)COc1c(Cl)ccc(Cl)c1Cl (stereo not drawn)	inactive
NC1=C(NC(=O)Cc2ccccc2F)C(=O)c2ccccc2C1=O	inactive
COC(=S)OC1CC(n2cnc3c(N)ncnc32)OC1CO[Si](C)(C)C(C)(C)C (stereo not drawn)	inactive
O=C(O/N=C1/CCC/C1=C\c1ccccc1)c1ccc(Cl)c(Cl)c1	inactive
CC(=O)OCCc1cc2ccccc2oc1=O	inactive
CCOC(=O)c1cc(I)c(-c2cc(C)no2)n1C	inactive
CCc1ccccc1NC(=O)C(=O)CC(=O)c1sc(Nc2ccccc2Cl)nc1C	inactive
O=C(NCc1cccnc1)C1COc2cc(-c3cc(=O)c4ccccc4o3)ccc2O1 (stereo not drawn)	inactive
Nc1nc(CCl)nc(Nc2ccccc2)n1	inactive
CCc1nc(N)nc(N)c1-c1ccc([N+](=O)[O-])c(NCc2ccccc2)c1	inactive
c1ccc(CC2(c3cc4ccccc4[nH]3)OCCO2)nc1	inactive
CN(C)C(=N)/N=C(\N)Nc1cccc(Cl)c1	inactive
CCOC(=O)C1=C(C)N(Cc2ccccc2)C2(O)C(OC)CC(=O)C3C(=O)N(c4ccccc4)C(=O)C132 (stereo not drawn)	inactive
CC1=NN2C=Nc3c(c(-c4ccc(Cl)cc4)cn3-c3ccc(C)cc3)C2N1 (stereo not drawn)	inactive
COc1ccc(NCc2cc(OC)c(OC)c(OC)c2)cc1	active
COc1ccc(C2=C[C@]3(O)CCCN3C[C@@H]2c2ccc(OC)c(OC)c2)cc1	active
Cc1ccc(-c2cc(-c3ccco3)c(C#N)c(O)n2)cc1	inactive
O=C1N/C(=N/N=C/C(O)C(O)C(O)CO)N/C1=C\c1c[nH]c2ccccc12 (stereo not drawn)	inactive
COC(=O)C1(CCC(C)=O)CCCCCC1=O (stereo not drawn)	inactive
O=C(Nc1cnc(O)nc1O)Oc1ccccc1	inactive
Cc1ccc2cc3cccc(C(=O)NCCN(C)C)c3nc2c1	inactive
CCOC(=O)c1c(SC(=O)c2ccc(OC)cc2)n(-c2ccccc2)c(=S)n(-c2ccccc2)c1=O	inactive
COC1(C)CCC(OS(C)(=O)=O)CO1 (stereo not drawn)	inactive
COc1nc2cccc(C(O)c3ccccc3)c2nc1-c1ccccc1 (stereo not drawn)	inactive
O=C1C=CC(=O)c2c1ccc1c3ccccc3n(CCCCCCCCCCCCn3c4ccccc4c4ccc5c(c43)C(=O)C=CC5=O)c21	inactive
OCCN(C1=NCCN1)/[N+](=C/c1ccccc1O)[CH-]c1ccccc1O	inactive
COC(=O)c1cc(NC2OCC(OC(C)=O)C(OC(C)=O)C2OC(C)=O)nc(SC)c1C(=O)OC (stereo not drawn)	inactive

* * *

# Tested on: SK-MEL-5
# test description: NCI tumour cell line growth inhibition, 48 h
Activity calls are given as the source filed them. No stated cut-off is given here; in the data, active = GI50 up to about 1.1 µM and inactive = higher.
// GI50 lookup, one value per entry
value type: GI50

> print(dat)
                                   compound  target.or.system             observed
1  CC(=O)OC1(C(C)=O)CC2(c3ccccc3)OC1(c1ccccc1)c1ccccc12 (stereo not drawn)          SK-MEL-5   3.37 µM (inactive)
2  Cc1cc(C(C)(C)C)c(OCCCN2CCOCC2)c(C(C)(C)C)c1          SK-MEL-5   15.9 µM (inactive)
3  O=C1/C(=C/c2ccc3c(c2)OCO3)SC2C=Nc3ccccc3N12 (stereo not drawn)          SK-MEL-5  > 100 µM (inactive)

* * *

# System: SK-MEL-28
# test description: NCI tumour cell line growth inhibition, 48 h
Activity calls are given as the source filed them. No stated cut-off is given here; in the data, active = GI50 up to about 1.1 µM and inactive = higher.
Possible outcomes: 1 = active, -1 = inactive

compound	category
CCOC(=O)c1cc(I)c(-c2cc(C)no2)n1C	-1
O=c1oc(=O)c2oc3ccccc3oc1=2	-1
CCOC(=O)CSc1[nH]c(NC(=S)Nc2ccccc2)c(C(N)=O)c1C(N)=O	-1
COC(=O)c1c(C)oc2ccc(OC(C)=O)cc12	-1
OCC(O)COc1c(Cl)ccc(Cl)c1Cl (stereo unspecified)	-1
COc1ccc(C[C@@H](C(=O)O[C@H](C)[C@H](NC(=O)[C@@H](CC(C)C)N(C)C(=O)C2CCCN2C(=O)[C@H](C)O)C(=O)N2CCCCNC(=O)[C@@H](C)C(=O)[C@H](C(C)C)OC(=O)C[C@H](O)[C@H]2CC(C)C)N(C)C(C)=O)cc1 (stereo partly specified)	-1
Cc1cc(S(=O)(=O)Nc2nc(Nc3ccccc3)n[nH]2)c(SSc2cc(Cl)c(C)cc2S(=O)(=O)Nc2nc(Nc3ccccc3)n[nH]2)cc1Cl	-1
OCCCNc1ccnc2cc(Cl)ccc12	-1
COC(=N)C1(C#N)NC(c2ccsc2)C(C#N)(C#N)NC1c1ccsc1 (stereo unspecified)	-1
NNC(=O)CCc1ccc2ccc3ccccc3c2c1	-1
COc1cccc2c1C(=O)c1c(O)c3c(c(O)c1C2=O)C[C@@](O)(C(=O)CO)C[C@@H]3OC1CC(N2CCOCC2)C(O)C(C)O1 (stereo partly specified)	1

* * *

# Tested on: TK-10
# test description: NCI tumour cell line growth inhibition, 48 h
Activity calls are given as the source filed them. Cut-off read from the data, not from the text of the source: active = GI50 up to about 1.1 µM and inactive = higher.
// values below are reported GI50
value type: GI50

> print(dat)
                                   compound  value.type            observed
1  COc1ccc2c3c([nH]c2c1[N+](=O)[O-])C(C)N(C(=O)/C=C/c1ccccc1)CC3 (stereo not drawn)        GI50  60.3 µM (inactive)
2  CN(C)NC1=C([N+](=O)[O-])C=NN(c2ccccc2)C1        GI50  3.19 µM (inactive)
3  CCc1ccccc1NC(=O)C(=O)CC(=O)c1sc(Nc2ccccc2Cl)nc1C        GI50  59.6 µM (inactive)

* * *

# GI50 annotations
# Test system: TK-10
# test description: NCI tumour cell line growth inhibition, 48 h
Activity calls are given as the source filed them. Cut-off read from the data, not from the text of the source: active = GI50 up to about 1.1 µM and inactive = higher.

molecule	GI50
Cn1c(NC(=O)NC23CC4CC(CC(C4)C2)C3)nc2ccccc21	39.5 µM (inactive)
O=C(Nc1cnc(O)nc1O)Oc1ccccc1	> 100 µM (inactive)
CN(C)/C=N\c1nncc2[nH]nnc12	> 100 µM (inactive)
COc1ccc(C[C@@H](C(=O)O[C@H](C)[C@H](NC(=O)[C@@H](CC(C)C)N(C)C(=O)C2CCCN2C(=O)[C@H](C)O)C(=O)N2CCCCNC(=O)[C@@H](C)C(=O)[C@H](C(C)C)OC(=O)C[C@H](O)[C@H]2CC(C)C)N(C)C(C)=O)cc1 (stereo partly drawn)	38.5 µM (inactive)
COc1ccccc1NC(=O)C1=C(C)NC(C)=C(C(=O)Nc2ccccc2OC)C1c1ccccc1[N+](=O)[O-]	22.5 µM (inactive)
CCOC(=O)/C(C#N)=C/c1ccc2c(c1)CC1(C2)Cc2cc(CC)c(C(C)O)cc2C1 (stereo not drawn)	25.5 µM (inactive)
COc1cccc2c1CCc1sc(CN3CCN(C)CC3)nc1-2	> 100 µM (inactive)
C=C1C2CCC3C4(C)CCCC(C)(C(=O)O)C4CCC3(C2)C1OC(=O)/C(C)=C/C (stereo not drawn)	72.8 µM (inactive)
Cc1ccc(S(=O)(=O)N2CCNCCN(S(=O)(=O)c3ccc(C)cc3)CCNCC2)cc1	18.3 µM (inactive)
C#CCn1c(=O)ccn(/C(=C\C(=O)OCC)C(=O)OCC)c1=O	1.81 µM (inactive)
O=S(=O)(c1cccc(N=C=S)c1)c1cccc(N=C=S)c1	20 µM (inactive)
CC(=O)Nc1ccc(/C=C/C(=O)c2sc(C(N)=S)nc2C)cc1	> 100 µM (inactive)
O=c1[nH]c2ccccc2c2nc3ccccc3n12	6.75 µM (inactive)
